Data credit: a melting point compilation (Tetko et al.; mined from patent text by program, amines drawn as free bases though some values may be those of a salt)

Items are presented alongside their recorded melting point.

# compound, melting point
data = [
    ("Nc1nnc2ccc(-c3ccco3)nn12", "203 to 206 °C"),
    ("CCNC(=O)c1occc1[Si](C)(C)C", "69 to 72 °C"),
    ("COc1ccc(N)c(OC)c1-c1ccc(C[C@H](NC(=O)c2c(Cl)cccc2Cl)C(=O)O)cc1", "231 to 232 °C"),
    ("CCCn1c(=O)c2[nH]c(-c3cc(C)n(CC(=O)Nc4ccc(Cl)cc4)n3)nc2n(CCC)c1=O", "261 to 265 °C"),
    ("Nc1ncnc2c1c(-c1ccc(Oc3ccccc3)cc1)cn2CCO", "144 to 145 °C"),
    ("Cc1cc(C)cc(-c2cn(C)cc(-c3cccc(C(F)(F)F)c3)c2=O)c1", "160 to 163 °C"),
    ("Cc1noc(NC(=O)N2CCN(c3nccc(-c4ccc(F)c(F)c4)n3)CC2)c1C", "214 to 215 °C"),
    ("CCOc1nc(C(F)(F)C(F)(F)F)cc(=O)n1-c1cc(O)c(Cl)cc1F", "117 to 120 °C"),
    ("O=C(O)c1ccccc1CCCCc1ccccc1", "82 to 84 °C"),
    ("O=[N+]([O-])c1cc(CSC2OC(CO)C(OC3OC4COC(c5ccccc5)OC4C(O)C3O)C(O)C2O)ccc1Cl (stereo unspecified)", "120 to 122 °C"),
    ("O=C(c1ccc(F)cc1)C1CCN(CCn2c(=O)[nH]c3ccccc32)CC1", "164 °C"),
    ("CCCC(=O)NCCc1c[nH]c2ccc(OCc3ccccc3)cc12", "112 to 114 °C"),
    ("CCOC(=O)Cn1c(=O)c(=O)[nH]c2ccc3ccc(N)cc3c21", "> 250 °C"),
    ("COc1ccc2c(c1)N1CCOCC1CN=C2c1ccco1 (stereo unspecified)", "130 to 132 °C"),
    ("CCn1nc(-c2ccc(OC)c(F)c2)c(-c2ccc(OC)cc2)cc1=O", "123 to 124 °C"),
    ("CCCCCCCCCCCC1CCC(O)C(=O)O1 (stereo unspecified)", "95 to 96 °C"),
    ("COc1ccc(-c2cc(-c3nc(C)cs3)c(=O)n(C)c2-c2ccnnc2)cc1", "271 °C"),
    ("COC(=O)c1cn2c(-c3ccc4ccccc4c3)csc2n1", "187 to 188 °C"),
    ("CCOc1cc2c(cc1OCC)C(CC)C(C)=NN=C2c1ccc(OC)c(OC)c1 (stereo unspecified)", "91 to 93 °C"),
    ("CCOC(=O)c1sc(OCC)nc1-c1cccc(C(F)(F)F)c1", "69 to 72 °C"),
    ("Cc1cc(C(=O)O)ccc1-c1ccc2cc3c(cc2c1)C(C)(C)CCC3(C)C", "248 to 250 °C"),
    ("N#CC1(C#N)C2C=CC(C2)C1(Cl)Cl (stereo unspecified)", "161 °C"),
    ("CC1=CC2CC(O)CCC2(C)C2=C1C1CCC(C(C)CCCC(C)C)C1(C)CC2 (stereo unspecified)", "112 to 113 °C"),
    ("CNC(=O)C1=CC(CF)(CF)Oc2ccccc21", "138 to 139 °C"),
    ("COc1cccc(OC)c1C(=O)Nc1ccc(OCCN2CCCC2)cc1", "136 to 140 °C"),
    ("Cc1cc(Cn2nc(C(F)(F)C(F)(F)F)nc2C(F)(F)F)ccc1NC(=O)c1cccc(Cl)c1C(=O)NC(C)(C)C=NO", "203 to 206 °C"),
    ("CCOC(=O)Cc1ccc(CCC(NC(=O)OC)C(=O)O)cc1 (stereo unspecified)", "108 to 110 °C"),
    ("Cc1ccc(SN(C)C(=O)Oc2cccc3c2OC(C)(C)C3)cc1", "62 °C"),
    ("O=C(O)[C@@H]1C[C@@H](c2ccccc2)CN1C(=O)c1ccccc1Br", "146 to 147 °C"),
    ("COC(=O)c1cc(C=O)cc([N+](=O)[O-])c1", "85 °C"),
    ("CCCSc1nc(C)nc(S)c1[N+](=O)[O-]", "162 to 164 °C"),
    ("O=C(Cl)c1ccc(S(=O)(=O)NC(=O)c2ccccc2)cc1", "180 to 182 °C"),
    ("CC(C)c1ccc(-c2cn(C)cc(-c3ccccc3)c2=O)cc1", "159 °C"),
    ("O=C(O)c1ccc2nc(S)[nH]c2c1", "> 250 °C"),
    ("Cn1c([N+](=O)[O-])cnc1-c1nc(Cl)c2ccccc2n1", "178 to 181 °C"),
    ("CCOC(=O)C(=CNc1c[nH]nn1)C(=O)c1cc(F)c(F)cc1F", "157 to 159 °C"),
    ("Cn1c(-c2ccc(-c3ccncc3)cc2)cnc1[C@H](Cc1ccccn1)N(C=O)c1cc2cc(Cl)ccc2o1", "135 to 140 °C"),
    ("COCc1cc(-c2cc3c(cc2F)c(=O)c(C(=O)O)cn3C2CC2)cc(C)n1", "192 to 193 °C"),
    ("CS(=O)(=O)C(=C1CN(C(c2ccccc2)c2ccccc2)C1)c1ccccc1F", "188 °C"),
    ("CCN(CC)CCNc1cccc2c1C(=O)c1c(NCCN(CC)CC)cccc1C2=O", "104 to 106 °C"),
    ("CC(C)(C)OC(=O)NCCn1cc(C#N)c(-c2cccc(F)c2)c1Cl", "97 to 99 °C"),
]
